Molecular target: T1, recombinant cynomolgus CD33 protein (NovoProtein) (cynomolgus)
T1 construct: Bought protein; also called cyno CD33
T1 sequence (chain, as listed by the source limits assumed): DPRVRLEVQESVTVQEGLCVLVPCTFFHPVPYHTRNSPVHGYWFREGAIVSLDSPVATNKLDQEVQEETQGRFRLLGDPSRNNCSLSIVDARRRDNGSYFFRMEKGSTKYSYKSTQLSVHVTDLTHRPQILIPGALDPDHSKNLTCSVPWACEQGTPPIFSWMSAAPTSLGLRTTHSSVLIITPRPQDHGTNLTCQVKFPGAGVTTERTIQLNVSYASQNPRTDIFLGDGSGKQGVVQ
Assay: ELISA, plate coated with recombinant CD33
observable: Relative potency (human/cyno)
I'd appreciate a reply containing only the number, no unit.

// query Relative potency (human/cyno) value for entry anti-CD33 antibody 6C7H37 (antibody, V domains shown, VH/VL only) VH: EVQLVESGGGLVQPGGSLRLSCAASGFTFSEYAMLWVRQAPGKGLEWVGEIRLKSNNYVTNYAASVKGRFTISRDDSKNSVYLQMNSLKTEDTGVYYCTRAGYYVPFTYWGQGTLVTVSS VL: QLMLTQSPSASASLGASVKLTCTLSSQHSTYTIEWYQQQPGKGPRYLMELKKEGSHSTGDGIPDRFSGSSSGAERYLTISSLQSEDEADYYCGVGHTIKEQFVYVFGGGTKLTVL
0.05

What about this binder? anti-CD33 antibody 6C7H53 (antibody, V domains shown, VH/VL only) VH: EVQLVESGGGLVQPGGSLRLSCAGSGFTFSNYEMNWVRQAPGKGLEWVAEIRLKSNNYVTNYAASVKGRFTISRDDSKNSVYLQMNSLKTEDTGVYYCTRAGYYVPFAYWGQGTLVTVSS VL: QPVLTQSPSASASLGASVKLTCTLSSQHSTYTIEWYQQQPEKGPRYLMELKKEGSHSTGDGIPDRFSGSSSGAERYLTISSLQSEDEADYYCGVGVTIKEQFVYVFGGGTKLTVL
0.01

Same for anti-CD33 antibody 6C7H54 (antibody, IgG1, V domains shown, VH/VL only; also called 6C7H54 IgG1; 6C754) VH: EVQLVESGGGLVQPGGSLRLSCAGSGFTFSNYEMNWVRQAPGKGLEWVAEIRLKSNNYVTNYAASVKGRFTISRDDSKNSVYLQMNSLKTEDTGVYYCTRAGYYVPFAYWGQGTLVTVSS VL: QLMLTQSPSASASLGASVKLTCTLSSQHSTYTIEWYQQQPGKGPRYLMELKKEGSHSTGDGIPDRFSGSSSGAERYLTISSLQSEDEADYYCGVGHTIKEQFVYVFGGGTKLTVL
0.49

What about this binder? anti-CD33 antibody 6C7H38 (antibody, V domains shown, VH/VL only) VH: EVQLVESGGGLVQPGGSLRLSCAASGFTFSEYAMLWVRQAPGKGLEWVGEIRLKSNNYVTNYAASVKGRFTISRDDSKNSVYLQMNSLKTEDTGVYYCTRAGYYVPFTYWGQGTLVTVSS VL: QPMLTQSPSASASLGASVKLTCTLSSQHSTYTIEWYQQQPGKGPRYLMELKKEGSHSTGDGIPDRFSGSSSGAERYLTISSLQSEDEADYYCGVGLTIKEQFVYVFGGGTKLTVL
0.04

Turning now to a further binder:
Requested read-out: Relative potency (human/cyno). Entry: anti-CD33 antibody 6C7H46 (antibody, V domains shown, VH/VL only) VH: EVQLVESGGGLVQPGGSLRLSCAASGFTFSEYAMLWVRQAPGKGLEWVGEIRLKSNNYVTNYAASVKGRFTISRDDSKNSVYLQMNSLKTEDTGVYYCTRAGYYVPFAYWGQGTLVTVSS VL: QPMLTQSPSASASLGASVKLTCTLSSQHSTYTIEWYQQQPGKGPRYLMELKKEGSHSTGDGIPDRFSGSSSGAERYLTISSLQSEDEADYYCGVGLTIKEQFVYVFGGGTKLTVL
0.01
